Biological target: human EGFR exon 20 insertion NPG (H773_V774insNPG) (Homo sapiens, UniProt P00533, INS772GNP)
Sequence (P00533 with tags, fused parts or gaps INS772GNP): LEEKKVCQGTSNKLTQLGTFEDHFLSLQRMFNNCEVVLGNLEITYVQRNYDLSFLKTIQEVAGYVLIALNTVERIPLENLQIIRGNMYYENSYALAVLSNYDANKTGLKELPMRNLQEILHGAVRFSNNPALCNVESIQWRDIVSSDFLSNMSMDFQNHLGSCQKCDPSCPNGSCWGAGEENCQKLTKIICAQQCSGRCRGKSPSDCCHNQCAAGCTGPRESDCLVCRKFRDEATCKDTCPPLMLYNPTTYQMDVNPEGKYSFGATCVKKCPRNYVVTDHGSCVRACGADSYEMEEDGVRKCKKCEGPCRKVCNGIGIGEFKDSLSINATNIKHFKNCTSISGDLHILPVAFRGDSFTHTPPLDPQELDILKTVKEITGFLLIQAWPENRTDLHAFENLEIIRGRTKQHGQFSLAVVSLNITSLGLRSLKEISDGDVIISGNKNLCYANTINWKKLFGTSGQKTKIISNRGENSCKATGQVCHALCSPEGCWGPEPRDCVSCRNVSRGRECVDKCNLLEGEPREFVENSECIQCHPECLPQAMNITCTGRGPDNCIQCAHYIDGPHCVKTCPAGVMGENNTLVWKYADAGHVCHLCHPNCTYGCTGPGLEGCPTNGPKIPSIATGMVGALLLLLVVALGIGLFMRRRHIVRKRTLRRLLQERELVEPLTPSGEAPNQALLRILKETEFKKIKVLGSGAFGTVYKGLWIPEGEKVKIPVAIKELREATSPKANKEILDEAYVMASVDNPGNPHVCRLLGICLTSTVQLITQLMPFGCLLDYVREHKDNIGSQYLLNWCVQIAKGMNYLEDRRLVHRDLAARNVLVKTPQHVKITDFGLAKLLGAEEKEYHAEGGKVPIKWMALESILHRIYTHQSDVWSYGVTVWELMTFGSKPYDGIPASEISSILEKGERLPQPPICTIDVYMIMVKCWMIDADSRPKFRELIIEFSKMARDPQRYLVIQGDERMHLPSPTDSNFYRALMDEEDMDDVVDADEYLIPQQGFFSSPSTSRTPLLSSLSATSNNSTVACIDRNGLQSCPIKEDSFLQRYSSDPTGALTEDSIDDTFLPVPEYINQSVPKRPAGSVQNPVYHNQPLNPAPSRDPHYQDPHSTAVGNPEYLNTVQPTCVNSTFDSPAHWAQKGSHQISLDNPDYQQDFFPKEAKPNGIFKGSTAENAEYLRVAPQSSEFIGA
Experiment: Ba/F3-EGFR-Exon20-NPG cell anti-proliferative assay (CellTiter 96 MTS, 72 h)
Settings: Ba/F3-EGFR-Exon20-NPG cells
Experimental: An expression vector, pLVX-IRES puro (Clontech) coding for human EGFR exon 20 insertions NPG (H773_V774insNPG) or ASV (V769_D770insASV), was transfected into HEK293 cells by the Trans-Lentiviral ORF Packaging System (Thermo Scientific), to produce virus encoding EGFR exon 20 insertions. […] The absorbance in each well was then measured at 490 nm using an Envision plate reader (Perkin Elmer).
Can you tell me IC50 for the items I'm about to list?

compound=C=CC(=O)Nc1cc(Nc2ncc(Cl)c(-c3cn4c5c(cccc35)CCC4)n2)c(OC)cc1OCCN1CCN(C)CC1 test_value="100 to 500 nM"
compound=C=CC(=O)Nc1cc(Nc2ncc(C#N)c(-c3cn4c5c(cccc35)N(C)C(=O)C4)n2)c(OC)cc1N1CC[C@@H](N(C)C)C1 test_value="< 100 nM"
compound=C=CC(=O)Nc1cc(Nc2ncc(C(=O)OCC)c(-c3cn4c5c(cccc35)CCC4)n2)c(OC)cc1N(C)CCN(C)C test_value="< 100 nM"

Give IC50 for each of the items listed below.
1. C=CC(=O)Nc1cc(Nc2ncc(C(=O)OC)c(-c3cn4c5c(cccc35)CCC4)n2)c(OC)cc1N(C)CCN(C)C
2. C=CC(=O)Nc1cc(Nc2ncc(Cl)c(-c3cn4c5c(cccc35)OCC4)n2)c(OC)cc1N(C)CCN(C)C
3. C=CC(=O)Nc1cc(Nc2ncc(C#N)c(-c3cn4c5c(cccc35)N(C)CC4)n2)c(OC)cc1N(C)CCN(C)C
4. C=CC(=O)Nc1cc(Nc2ncc(CCC(=O)OC)c(-c3cn4c5c(cccc35)CCC4)n2)c(OC)cc1N(C)CCN(C)C
5. C=CC(=O)Nc1cc(Nc2ncc(CC)c(-c3cn4c5c(cccc35)CCC4)n2)c(OC)cc1N(C)CCN(C)C
6. C=CC(=O)Nc1cc(Nc2ncc(C(=O)NC)c(-c3cn4c5c(cccc35)CCC4)n2)c(OC)cc1N(C)CCN(C)C
7. C=CC(=O)Nc1cc(Nc2ncc(-c3ccnn3C)c(-c3cn4c5c(cccc35)CCC4)n2)c(OC)cc1N(C)CCN(C)C

[out]
["< 100 nM", "< 100 nM", "100 to 500 nM", "< 100 nM", "< 100 nM", "< 100 nM", "< 100 nM"]

Give IC50 for each of the items listed below.
1. C=CC(=O)Nc1cc(Nc2nccc(-c3c(N4CCC(F)C4)n4c5c(cccc35)CCC4)n2)c(OC)cc1N(C)CCN(C)C (stereo not drawn)
2. C=CC(=O)Nc1cc(Nc2ncc(Cl)c(-c3cn4c5c(cccc35)OCC4)n2)c(C)cc1N(C)CCN1CCCC1
3. C=CC(=O)Nc1cc(Nc2ncc(C(=O)OC)c(-c3nn4c5c(cccc35)OCC4)n2)c(OC)cc1N(C)CCN(C)C
4. C=CC(=O)Nc1cc(Nc2ncc(-c3ncco3)c(-c3cn4c5c(cccc35)CCC4)n2)c(OC)cc1N(C)CCN(C)C
5. C=CC(=O)Nc1cc(Nc2ncc(C#N)c(-c3cn4c5c(cccc35)OCC4)n2)c(OC)cc1N1CC(N(C)C)C1
6. C=CC(=O)Nc1cc(Nc2ncc(CCC(N)=O)c(-c3cn4c5c(cccc35)CCC4)n2)c(OC)cc1N(C)CCN(C)C
7. C=CC(=O)Nc1cc(Nc2nccc(-c3c(-c4ncco4)n4c5c(cccc35)CCC4)n2)c(OC)cc1N(C)CCN(C)C

[out]
["< 100 nM", "< 100 nM", "< 100 nM", "< 100 nM", "< 100 nM", "100 to 500 nM", "< 100 nM"]

Give IC50 for each of the items listed below.
1. C=CC(=O)Nc1cc(Nc2ncc(-c3nc(C)no3)c(-c3cn4c5c(cccc35)CCC4)n2)c(OC)cc1N(C)CCN(C)C
2. C=CC(=O)Nc1cc(Nc2ncc(Cl)c(-c3cn4c5c(cccc35)OCC4)n2)c(C)cc1OCCN1CCCC1

[out]
1. < 100 nM
2. < 100 nM

Give IC50 for each of the items listed below.
1. C=CC(=O)Nc1cc(Nc2ncc(OCC(F)F)c(-c3cn4c5c(cccc35)CCC4)n2)c(OC)cc1N(C)CCN(C)C
2. C=CC(=O)Nc1cc(Nc2ncc(CC)c(-c3cn4c5c(cccc35)CCC4)n2)c(OC)cc1N1CCN(C(C)=O)CC1
3. C=CC(=O)Nc1cc(Nc2ncc(-c3cnn(C)c3C)c(-c3cn4c5c(cccc35)CCC4)n2)c(OC)cc1N(C)CCN(C)C
4. C=CC(=O)Nc1cc(Nc2ncc(N(C)S(C)(=O)=O)c(-c3cn4c5c(cccc35)CCC4)n2)c(OC)cc1N(C)CCN(C)C
5. C=CC(=O)Nc1cc(Nc2ncc(-c3ncnn3C)c(-c3cn4c5c(cccc35)CCC4)n2)c(OC)cc1N(C)CCN(C)C

[out]
1. < 100 nM
2. > 1000 nM
3. < 100 nM
4. > 1000 nM
5. < 100 nM

Give IC50 for each of the items listed below.
1. C=CC(=O)Nc1cc(Nc2ncc(/C=C/C#N)c(-c3cn4c5c(cccc35)CCC4)n2)c(OC)cc1N(C)CCN(C)C
2. C=CC(=O)Nc1cc(Nc2ncc(-c3ncccn3)c(-c3cn4c5c(cccc35)CCC4)n2)c(OC)cc1N(C)CCN(C)C
3. C=CC(=O)Nc1cc(Nc2ncc(C(=O)OC(C)C)c(-c3cn4c5c(cccc35)CCC4)n2)c(OC)cc1N(C)CCN(C)C

[out]
1. < 100 nM
2. < 100 nM
3. < 100 nM

###

Target: Her2 exon 20 YVMA insertion (A775_G776ins YVMA) (Homo sapiens, UniProt P04626, INS775YVMA)
Construct: expressed in transfected cells; host or cells: Ba/F3 (murine pro-B) cells transduced with lentivirus from pLVX-IRES puro
Sequence (P04626 with tags, fused parts or gaps INS775YVMA): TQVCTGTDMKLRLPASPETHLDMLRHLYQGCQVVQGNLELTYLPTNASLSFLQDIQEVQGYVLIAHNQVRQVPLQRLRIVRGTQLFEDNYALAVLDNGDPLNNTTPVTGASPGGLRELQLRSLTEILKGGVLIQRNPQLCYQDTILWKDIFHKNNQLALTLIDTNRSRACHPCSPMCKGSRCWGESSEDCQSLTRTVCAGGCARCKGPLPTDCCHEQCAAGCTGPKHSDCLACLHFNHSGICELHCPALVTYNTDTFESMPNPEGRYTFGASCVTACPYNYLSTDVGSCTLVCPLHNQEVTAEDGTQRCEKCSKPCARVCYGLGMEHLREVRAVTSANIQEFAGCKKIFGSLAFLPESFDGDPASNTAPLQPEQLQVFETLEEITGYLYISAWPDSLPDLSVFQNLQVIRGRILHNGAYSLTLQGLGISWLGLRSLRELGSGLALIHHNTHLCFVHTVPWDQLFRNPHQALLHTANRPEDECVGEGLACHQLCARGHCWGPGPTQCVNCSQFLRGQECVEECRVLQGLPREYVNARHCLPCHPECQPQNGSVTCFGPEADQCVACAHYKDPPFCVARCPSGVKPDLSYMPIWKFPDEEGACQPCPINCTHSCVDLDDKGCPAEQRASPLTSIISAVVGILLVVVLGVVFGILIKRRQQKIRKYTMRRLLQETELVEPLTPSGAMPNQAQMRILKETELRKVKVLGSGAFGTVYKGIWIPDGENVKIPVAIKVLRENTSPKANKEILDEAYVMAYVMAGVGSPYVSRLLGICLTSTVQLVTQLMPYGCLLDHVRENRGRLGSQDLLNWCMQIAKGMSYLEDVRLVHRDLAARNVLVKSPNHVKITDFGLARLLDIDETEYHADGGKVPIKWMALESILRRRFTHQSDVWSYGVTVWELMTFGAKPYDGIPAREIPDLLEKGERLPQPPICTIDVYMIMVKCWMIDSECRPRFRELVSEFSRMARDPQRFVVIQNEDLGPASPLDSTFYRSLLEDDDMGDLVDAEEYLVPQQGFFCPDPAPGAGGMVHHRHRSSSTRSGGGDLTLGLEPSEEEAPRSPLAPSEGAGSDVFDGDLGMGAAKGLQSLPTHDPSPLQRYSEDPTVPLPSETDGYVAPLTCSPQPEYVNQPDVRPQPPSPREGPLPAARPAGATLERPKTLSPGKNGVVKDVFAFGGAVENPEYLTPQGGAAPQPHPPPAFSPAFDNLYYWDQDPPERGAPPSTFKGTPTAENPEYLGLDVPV
Test: Ba/F3-Her2 Exon20 YVMA cell anti-proliferative assay (CellTiter 96 MTS, 72 h)
Assay type: cell-based
Conditions: Ba/F3-Her2 Exon20 YVMA cells
Can you tell me IC50 for the items I'm about to list?

Here's what some known entries look like.
compound="C=CC(=O)Nc1cc(Nc2ncc(Cl)c(-c3cn4c5c(cccc35)OCC4)n2)c(OC)cc1N(C)CCN(C)C [Example 76]" outcome_measure=IC50 test_value="100 to 500 nM"
compound="C=CC(=O)Nc1cc(Nc2ncc(CCC(=O)OC)c(-c3cn4c5c(cccc35)CCC4)n2)c(OC)cc1N(C)CCN(C)C [Example 39]" outcome_measure=IC50 test_value="100 to 500 nM"
compound="C=CC(=O)Nc1cc(Nc2ncc(CC)c(-c3cn4c5c(cccc35)CCC4)n2)c(OC)cc1N(C)CCN(C)C [Example 2]" outcome_measure=IC50 test_value="100 to 500 nM"
compound="C=CC(=O)Nc1cc(Nc2nccc(-c3cn4c5c(cccc35)OCC4)n2)c(OC)cc1N(C)CCN(C)C [Example 77]" outcome_measure=IC50 test_value="100 to 500 nM"
compound="C=CC(=O)Nc1cc(Nc2nccc(-c3c(N4CCC(O)C4)n4c5c(cccc35)CCC4)n2)c(OC)cc1N(C)CCN(C)C (stereo not shown) [Example 61]" outcome_measure=IC50 test_value="< 100 nM"
compound="C=CC(=O)Nc1cc(Nc2ncc(Cl)c(-c3cn4c5c(cccc35)CCC4)n2)c(CC)cc1N(C)CCN(C)C [Example 18]" outcome_measure=IC50 test_value="100 to 500 nM"

// switching to the query compound
[in] Look up IC50 of C=CC(=O)Nc1cc(Nc2ncc(C(=O)OCC)c(-c3cn4c5c(cccc35)CCC4)n2)c(OC)cc1N(C)CCN(C)C [Example 69] and report it.
[out] < 100 nM

###

Molecular target: human EGFR exon 20 insertion NPG (H773_V774insNPG) (Homo sapiens, UniProt P00533, INS772GNP)
Assay: Ba/F3-EGFR-Exon20-NPG cell anti-proliferative assay (CellTiter 96 MTS, 72 h)
Conditions: Ba/F3-EGFR-Exon20-NPG cells
Procedure: An expression vector, pLVX-IRES puro (Clontech) coding for human EGFR exon 20 insertions NPG (H773_V774insNPG) or ASV (V769_D770insASV), was transfected into HEK293 cells by the Trans-Lentiviral ORF Packaging System (Thermo Scientific), to produce virus encoding EGFR exon 20 insertions. […] The absorbance in each well was then measured at 490 nm using an Envision plate reader (Perkin Elmer).
outcome measure: IC50

Give IC50 for each of the items listed below.
1. C=CC(=O)Nc1cc(Nc2ncc(C(=O)OC)c(-c3cn4c5c(cccc35)CCC4)n2)c(OC)cc1N(C)CC1CCCN1C (stereo not drawn)
2. C=CC(=O)Nc1cc(Nc2ncc(Cl)c(-c3cn4c5c(cccc35)OCC4)n2)c(OC)cc1O[C@@H](COCC)CN(C)C
3. C=CC(=O)Nc1cc(Nc2nccc(-c3c(N4CCN(C)C(=O)C4)n4c5c(cccc35)CCC4)n2)c(OC)cc1N(C)CCN(C)C

[out]
1. < 100 nM
2. < 100 nM
3. 100 to 500 nM
